experimental_protocol: Validation screen for small molecules that induce DNA re-replication in SW480 colon adenocarcinoma cells (AID 504364)
condition_details: DNA re-replication phenotype (high-content imaging); series mostly up to 46.1 µM
Inconclusive results are not listed. Active and inactive are the calls of the source. The call rests on the fitted dose curve; in most records, active means well fitted activation curve with a large enough effect; inconclusive means small, poorly fitted or top-dose-only effect; inactive means flat fitted curve, though single readings scatter.
Entry note: the call must match one of active, inactive

Cc1cc(NC(=O)Nc2ccc3c(ccn3C)c2)sn1 :: inactive
COc1ccc(NC(=O)/C=C/c2ccc(Cl)cc2)cc1 :: inactive
Oc1ccc(C2CNCc3sccc32)cc1O (centres undefined) :: inactive
CC(C)NCC(O)COc1cccc2ccccc12 (centres undefined) :: inactive
O=C(O)CC[C@@H](C(=O)O)N1C(=O)c2ccccc2C1=O :: inactive
OC[C@H]1O[C@@H](n2cnc3c(NC4CCCCC4)ncnc32)[C@H](O)[C@@H]1O :: inactive
O=C(O)c1cc(=O)c2c(Cl)cc(Cl)cc2[nH]1 :: inactive
Nc1ccn([C@@H]2O[C@H](CO)[C@@H](O)[C@@H]2O)c(=O)n1 :: inactive
CN=c1nc(-c2ccccc2)n(-c2ccccc2)s1 :: inactive
CN1C2CCC1CC(OC(=O)C(O)c1ccccc1)C2 (centres undefined) :: inactive

## Input Could you kindly confirm the outcome this assay logged for O=C(O)c1cc([N+](=O)[O-])ccc1NCCCc1ccccc1 ?
## Output inactive

## Input Hi, sorry to bother you, what did the test record for Cn1cc(C2=C(c3ccc(Cl)cc3Cl)C(=O)NC2=O)c2ccccc21 ?
## Output inactive

## Input Per the assay record, what outcome was assigned to Cc1ccccc1CNc1ncnc2c1ncn2C1OC(CO)C(O)C1O (centres undefined) ?
## Output inactive

## Input Hey, what did the test say about CCN1/C(=C/C(C)=O)Sc2ccc(OC)cc21 ?
## Output inactive

## Input Record lookup: outcome of this test for N.N.O=C(O)C1(C(=O)O)CCC1.[Pt] ?
## Output inactive

## Input // return assay outcome for CN1CCc2cc(O)c(O)cc2C(c2ccccc2)C1 (centres undefined)
## Output inactive

## Input How was COC(=O)c1c(C)[nH]c(C)c1C(=O)c1ccccc1Cc1ccccc1 classified in this test?
## Output inactive

## Input Given Cc1ccc(C(=O)O[C@H](C(=O)O)[C@@H](OC(=O)c2ccc(C)cc2)C(=O)O)cc1 (tested in a mixture with another compound) , state the outcome it received in this test.
## Output inactive

## Input Give the logged outcome of this assay for the following compound: COc1cccc(OC)c1OCCNCC1COc2ccccc2O1 (centres undefined)
## Output inactive
